Experiment: soluble on expression in E. coli; label from the status in PepcDB or PDB records

{"residueSequence": "MGSSHHHHHHSSGLVPRGSHMNNIDFDSIAKMLLIKYKDFILSKFKKAAPVENIRFQNLVHTNQFAQGVLGQSQHLCTVYDNPSWHSIVLETLDLDLIYKNVDKEFAKDGHAEGENIYTDYLVKELLRYFKQDFFKWCNKPDCNHCGQNTSENMTPLGSQGPNGEESKFNCGTVEIYKCNRCGNITRFPRYNDPIKLLETRKGRCGEWCNLFTLILKSFGLDVRYVWNREDHVWCEYFSNFLNRWVHVDSCEQSFDQPYIYSINWNKKMSYCIAFGKDGVVDVSKRYILQNELPRDQIKEEDLKFLCQFITKRLRYSLNDDEIYQLACRDEQEQIELIRGKTQETKSESVSAASK", "soluble on expression in E. coli": "soluble"}
{"residueSequence": "MSLDSRPAVLEISASIIDISENALEQLGVDWRLHNSRFDLQTGNGTNTMLNNPGSLDSVATTAGAAAAIAATPAGGVLSAVIGGGSRYLMARISALQQTDQARITANPKVATLDNTEAVMDNRQNFYVPVAGYQSADLYAISAGVSLRVLPMVVMDGGTVRIRMNVHIEDGQITSQQVGNLPITSQSEIDTQALINEGDSLLIAGYSVEQQSKSVDAVPGLSKIPLVGALFRTDQTTGKRFQRMFLVTPRVITPEGHHHHHH", "soluble on expression in E. coli": "soluble"}
